- Target of assay: T1, Prostate specific membrane antigen (PSMA) (human, UniProt Q04609 1-750)
- T1 construct: whole, on cells; The background says that PSMA is a homodimer when enzymatically active; also called glutamate carboxypeptidase II; GCPII
- T1 sequence (Q04609 whole entry): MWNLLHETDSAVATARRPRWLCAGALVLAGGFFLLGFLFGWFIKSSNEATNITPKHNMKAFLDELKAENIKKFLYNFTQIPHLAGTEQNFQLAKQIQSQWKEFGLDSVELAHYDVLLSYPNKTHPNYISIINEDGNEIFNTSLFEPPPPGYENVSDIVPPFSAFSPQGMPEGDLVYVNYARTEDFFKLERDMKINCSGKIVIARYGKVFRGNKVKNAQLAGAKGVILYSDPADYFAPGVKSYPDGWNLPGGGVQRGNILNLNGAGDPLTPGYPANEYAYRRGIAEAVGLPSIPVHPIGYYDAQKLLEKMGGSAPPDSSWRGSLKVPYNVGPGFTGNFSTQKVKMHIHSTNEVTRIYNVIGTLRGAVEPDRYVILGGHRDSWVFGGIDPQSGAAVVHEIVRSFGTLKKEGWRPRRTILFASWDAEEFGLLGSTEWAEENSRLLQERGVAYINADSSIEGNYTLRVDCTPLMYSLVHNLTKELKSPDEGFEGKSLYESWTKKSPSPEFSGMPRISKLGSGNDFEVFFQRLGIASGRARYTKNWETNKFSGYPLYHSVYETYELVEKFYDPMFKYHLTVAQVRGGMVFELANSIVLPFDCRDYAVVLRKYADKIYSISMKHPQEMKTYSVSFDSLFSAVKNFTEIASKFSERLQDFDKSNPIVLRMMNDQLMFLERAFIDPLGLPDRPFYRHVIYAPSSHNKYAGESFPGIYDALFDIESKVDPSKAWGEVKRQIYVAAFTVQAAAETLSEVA
- Assay procedure: flow cytometry on LNCAP cells, FITC anti-human IgG
Metric: EC50 (µg/mL)
Please respond with the number in µg/mL and leave the unit unwritten.

Worked examples, 2 binders total:
3F11-var 1 (antibody, human IgG1, kappa, V domains shown, Expressed from pXC-IgG1zadeltaK and pXC-Kappa vectors) VH: QVQLVQSGAEVKKPGASVKVSCKASGYTFTYFDINWLRQAPGQGLEWMGGISPGDGNTNYNENFKGRVTLTIDKSTSTAYMELSSLRSEDTAVYFCARDGNFPYYAMDSWGQGTLVTVSS VL: DIVMTQSPLSLPVTPGEPASISCRSSQSLVHSNGNTYLHWFLQKPGQSPQLLIYTVSNRFSGVPDRFSGSGSGTDFTLKISRVEAEDVGVYFCSQSTHVPTFGGGTKVEIKR ... 0.29
3F11-var 12 (antibody, human IgG1, kappa, V domains shown, Expressed from pXC-IgG1zadeltaK and pXC-Kappa vectors) VH: QVQLVQSGAEVKKPGASVKVSCKASGYTFTYFDINWLRQAPGQGLEWMGGISPGDSNVNYAQKFQGRVTLTIDTSTSTAYMELSSLRSEDTAVYYCARDGNFPYYAMDSWGQGTLVTVSS VL: DIVMTQSPLSLPVTPGEPASISCRSSQSLVHSSGQTYLHWYLQKPGQSPQLLIYTVSNRFSGVPDRFSGSGSGTDFTLKISRVEAEDVGVYYCSQSTHVPTFGGGTKVEIKR ... 0.329

Query: Reported EC50 for 3F11-var 3 (antibody, human IgG1, kappa, V domains shown, Expressed from pXC-IgG1zadeltaK and pXC-Kappa vectors) VH: QVQLVQSGAEVKKPGASVKVSCKASGYTFTYFDINWLRQAPGQGLEWMGGISPGDGNVNYAQKFQGRVTLTIDTSTSTAYMELSSLRSEDTAVYYCARDGNFPYYAMDSWGQGTLVTVSS VL: DIVMTQSPLSLPVTPGEPASISCRSSQSLVHSNGNTYLHWFLQKPGQSPQLLIYTVSNRFSGVPDRFSGSGSGTDFTLKISRVEAEDVGVYFCSQSTHVPTFGGGTKVEIKR : what is it?
Reply: 0.264

Query: Reported EC50 for 3F11-var 14 (antibody, human IgG1, kappa, V domains shown, Expressed from pXC-IgG1zadeltaK and pXC-Kappa vectors) VH: QVQLVQSGAEVKKPGASVKVSCKASGYTFTYFDINWLRQAPGQGLEWMGGISPGDGNTNYAQKFQGRVTLTIDTSTSTAYMELSSLRSEDTAVYYCARDGNFPYYAMDSWGQGTLVTVSS VL: DIVMTQSPLSLPVTPGEPASISCRSSQSLVHSSGQTYLHWYQQKPGQSPQLLIYTVSNRASGVPDRFSGSGSGTDFTLKISRVEAEDVGTYYCSQSTHVPTFGGGTKVEIKR : what is it?
Reply: 0.272

Query: Reported EC50 for 3F11-var 9 (antibody, human IgG1, kappa, V domains shown, Expressed from pXC-IgG1zadeltaK and pXC-Kappa vectors) VH: QVQLVQSGAEVKKPGASVKVSCKASGYTFTYFDINWLRQAPGQGLEWMGGISPGDGNTNYNENFKGRVTLTIDKSTSTAYMELSSLRSEDTAVYFCARDGNFPYYAMDSWGQGTLVTVSS VL: DIVMTQSPLSLPVTPGEPASISCRSSQSLVHSSGQTYLHWYLQKPGQSPQLLIYTVSNRFSGVPDRFSGSGSGTDFTLKISRVEAEDVGVYYCSQSTHVPTFGGGTKVEIKR : what is it?
Reply: 0.281

Query: Reported EC50 for 3F11-var 7 (antibody, human IgG1, kappa, V domains shown, Expressed from pXC-IgG1zadeltaK and pXC-Kappa vectors) VH: QVQLVQSGAEVKKPGASVKVSCKASGYTFTYFDINWLRQAPGQGLEWMGGISPGDGNVNYAQKFQGRVTLTIDTSTSTAYMELSSLRSEDTAVYYCARDGNFPYYAMDSWGQGTLVTVSS VL: DIVMTQSPLSLPVTPGEPASISCRSSQSLVHSNGQTYLHWYLQKPGQSPQLLIYTVSNRFSGVPDRFSGSGSGTDFTLKISRVEAEDVGVYYCSQSTHVPTFGGGTKVEIKR : what is it?
Reply: 0.178
